Entries and their Population Pyknosed Nuclei (%)
Test system: HEK-293T
METHOD NOTES: Multiplex assay against HEK293T
Assay type: toxicity, cell-based
STATED CONDITIONS: human, 24 h, 1 µM, compound concentration 1 uM, replicate 1
Answer format: numeric, % implied, no suffix.

As a guide, the following entries are already answered.
| COMPOUND | MEASURED |
| --- | --- |
| CC(C)(C)c1cnc(CSc2cnc(NC(=O)C3CCNCC3)s2)o1 | 24 |
| CCC(=O)O[C@]1(C(=O)SCF)[C@H](C)C[C@H]2[C@@H]3C[C@H](F)C4=CC(=O)C=C[C@]4(C)[C@@]3(F)[C@@H](O)C[C@@]21C [FLUTICASONE PROPIONATE] | 48 |
| Nc1nc2c(c(N3CCNCC3)n1)CCC1=C2[C@@H]2CCCC[C@@H]2O1 | 28 |
| c1ccc2oc(-c3csc(C4CCN(Cc5nc6ncccc6[nH]5)CC4)n3)cc2c1 | 28 |

-- ask Item Cc1cn(-c2cc(NC(=O)c3ccc4c(c3)CN(c3cncnc3)C[C@@H]4C)cc(C(F)(F)F)c2)cn1 has what recorded Population Pyknosed Nuclei (%)?
-- reply 11

-- ask Also, CNC(=O)c1cc(Oc2ccc(NC(=O)Nc3cc(C(C)(C)C)nn3-c3ccc4ncccc4c3)c(F)c2)ccn1 please.
-- reply 5

-- ask Also, CC(=O)c1cc(-c2cc(C(=O)NC3CC3)ccc2C)c2ncccn12 please.
-- reply 52

-- ask Also, COc1cc2c(Nc3ccc(NC(=O)c4ccccc4)cc3)ncnc2cc1OCCCN1CCOCC1 please.
-- reply 26

Data origin, for the record: ChEMBL document CHEMBL4689842
